Cited source for all entries: patent US20170275270A1

biological target: catalytic domain of human Bub1 (amino acids 704-1085) (Homo sapiens); construct: catalytic domain of human Bub1 (amino acids 704-1085); His6 (N); made in house; host or cells: Hi5 insect cells; experiment: Bub1 kinase assay (TR-FRET); type: biochemical; conditions: 10 μM ATP, read-out: Biological Assay 1: Bub1 kinase assay median IC50
pIC50: −log10 of the molar value.
# pIC50 annotations
Reported endpoint: pIC50

chemical_smiles=CCOc1cc(F)c(Cn2nc(-c3nc4c(c(Nc5cnnc(Cl)c5)n3)CCC4)c3ccccc32)c(F)c1 numeric_value=6.18
chemical_smiles=CCOc1cc(F)c(Cn2nc(-c3nc4c(c(Nc5ccncc5OC)n3)COC4)c3ccccc32)c(F)c1 numeric_value=7.74
chemical_smiles=CCOc1cc(F)c(Cn2nc(-c3ncc(CN)c(Nc4ccnc(C(F)F)c4)n3)c3ccccc32)c(F)c1 numeric_value=7.05
chemical_smiles=CCOc1cc(F)c(Cn2nc(-c3nc4c(c(Nc5ccncc5OC)n3)CCC4)c3ccccc32)c(F)c1 numeric_value=8.54

----------
biological target: catalytic domain of human Bub1 (amino acids 704-1085) (Homo sapiens); construct: catalytic domain of human Bub1 (amino acids 704-1085); His6 (N); made in house; host or cells: Hi5 insect cells; experiment: Bub1 kinase assay (TR-FRET); assay type: biochemical; conditions: Biological Assay 1: Bub1 kinase assay median IC50, 10 μM ATP
Reported endpoint: IC50

chemical_smiles=COCCOc1cc(F)c(Cn2nc(-c3nc4c(c(Nc5ccnc(C)n5)n3)CN(CC(F)(F)F)C4)c3ccccc32)c(F)c1 result="120 nM"
chemical_smiles=COCCOc1cc(F)c(Cn2nc(-c3nc(Nc4ccnc(C)n4)cc(C(C)C)n3)c3ccccc32)c(F)c1 result="670 nM"
chemical_smiles=CCOc1cc(F)c(Cn2nc(-c3nc4c(c(Nc5cc(Cl)ncn5)n3)CCC4)c3ccccc32)c(F)c1 result="330 nM"
chemical_smiles=CCOc1cc(F)c(Cn2nc(-c3nc(C)cc(Nc4ccncc4)n3)c3ccccc32)c(F)c1 result="8.4 nM"
chemical_smiles=CCOc1cc(F)c(Cn2nc(-c3ncc(CCNCC(F)(F)F)c(Nc4ccncc4Cl)n3)c3ccccc32)c(F)c1 result="48 nM"
chemical_smiles=Cc1cnccc1Nc1nc(-c2nn(Cc3c(F)cc(O)cc3F)c3ccccc23)nc2c1CCC2 result="7.7 nM"
chemical_smiles=COCCOc1cc(F)c(Cn2nc(-c3ncc(C4CCN(CC(F)(F)F)CC4)c(Nc4ccnc(C)n4)n3)c3ccccc32)c(F)c1 result="290 nM"

----------
Molecular target: catalytic domain of human Bub1 (amino acids 704-1085) (Homo sapiens, UniProt O43683)
Construct: catalytic domain of human Bub1 (amino acids 704-1085); His6 (N); made in house; host or cells: Hi5 insect cells
Sequence (O43683 704-1085): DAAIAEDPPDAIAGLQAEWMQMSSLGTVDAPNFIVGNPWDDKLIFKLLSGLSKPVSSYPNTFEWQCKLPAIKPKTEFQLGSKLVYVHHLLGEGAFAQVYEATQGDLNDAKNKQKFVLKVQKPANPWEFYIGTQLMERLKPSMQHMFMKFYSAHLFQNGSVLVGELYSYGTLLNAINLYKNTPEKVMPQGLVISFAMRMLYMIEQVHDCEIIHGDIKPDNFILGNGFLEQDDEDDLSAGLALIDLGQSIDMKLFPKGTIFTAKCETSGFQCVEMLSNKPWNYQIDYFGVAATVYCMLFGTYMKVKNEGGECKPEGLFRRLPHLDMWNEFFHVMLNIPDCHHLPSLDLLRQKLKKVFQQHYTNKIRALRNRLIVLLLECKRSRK
Test: Bub1 kinase assay (TR-FRET)
Assay type: biochemical
Details: 10 μM ATP, read-out: Biological Assay 1: Bub1 kinase assay median IC50
Procedure: To this end, 100-fold concentrated compound solutions (in DMSO) were previously prepared by serial dilution (1:3.4) of 2 mM stocks in a clear low volume 384-well source microtiter plate (Greiner Bio-One, Frickenhausen, Germany), from which 50 nL of compounds were transferred into a black low volume test microtiter plate from the same supplier. […]
# IC50 annotations
Reported endpoint: IC50 (nM)

chemical_smiles=CCOc1cc(F)c(Cn2nc(-c3ncc(CC4CNC4)c(Nc4ccnc(C)n4)n3)c3ccccc32)c(F)c1 tested_target="catalytic domain of human Bub1 (amino acids 704-1085) (Homo sapiens, UniProt O43683)" numeric_value=49
chemical_smiles=Cc1cc(Nc2nc(-c3nn(Cc4c(F)cc(OCCO)cc4F)c4ccccc34)nc3c2CCC3)ccn1 tested_target="catalytic domain of human Bub1 (amino acids 704-1085) (Homo sapiens, UniProt O43683)" numeric_value=48
chemical_smiles=CCOc1cc(F)c(Cn2nc(-c3nc(C)cc(Nc4ccncc4OC(F)(F)F)n3)c3ccccc32)c(F)c1 tested_target="catalytic domain of human Bub1 (amino acids 704-1085) (Homo sapiens, UniProt O43683)" numeric_value=5.6
chemical_smiles=CCOc1cc(F)c(Cn2nc(-c3nc(CN4CCOCC4)cc(Nc4ccnc(S(C)(=O)=O)c4)n3)c3ccccc32)c(F)c1 tested_target="catalytic domain of human Bub1 (amino acids 704-1085) (Homo sapiens, UniProt O43683)" numeric_value=520
chemical_smiles=COCCOc1cc(F)c(Cn2nc(-c3nc(C)cc(Nc4ccncc4OC)n3)c3ccccc32)c(F)c1 tested_target="catalytic domain of human Bub1 (amino acids 704-1085) (Homo sapiens, UniProt O43683)" numeric_value=6.7
chemical_smiles=COCCOc1cc(F)c(Cn2nc(-c3nc(C)cc(Nc4ccncc4OC(F)(F)F)n3)c3ccccc32)c(F)c1 tested_target="catalytic domain of human Bub1 (amino acids 704-1085) (Homo sapiens, UniProt O43683)" numeric_value=12
chemical_smiles=COc1cnccc1Nc1cc(C(C)C)nc(-c2nn(Cc3c(F)cc(OCCO)cc3F)c3ccccc23)n1 tested_target="catalytic domain of human Bub1 (amino acids 704-1085) (Homo sapiens, UniProt O43683)" numeric_value=31

----------
target: catalytic domain of human Bub1 (amino acids 704-1085) (Homo sapiens); construct: catalytic domain of human Bub1 (amino acids 704-1085); His6 (N); made in house; host or cells: Hi5 insect cells; experiment: Bub1 kinase assay (TR-FRET); type: biochemical; details: 10 μM ATP, read-out: Biological Assay 1: Bub1 kinase assay median IC50
Reported endpoint: log10 IC50 (log10 of the value in nM)

chemical_smiles=COCCOc1cc(F)c(Cn2nc(-c3nc(Nc4ccncc4OC)cc(C(C)C)n3)c3ccccc32)c(F)c1 tested_target="catalytic domain of human Bub1 (amino acids 704-1085) (Homo sapiens)" numeric_value=1.18
chemical_smiles=CCOc1cc(F)c(Cn2nc(-c3nc(CN4CCOCC4)cc(Nc4ccncc4C)n3)c3ccccc32)c(F)c1 tested_target="catalytic domain of human Bub1 (amino acids 704-1085) (Homo sapiens)" numeric_value=0.78
chemical_smiles=CCOc1cc(F)c(Cn2nc(-c3nc(CN4CCOCC4)cc(Nc4ccncc4Cl)n3)c3ccccc32)c(F)c1 tested_target="catalytic domain of human Bub1 (amino acids 704-1085) (Homo sapiens)" numeric_value=1.56
chemical_smiles=CCOc1cc(F)c(Cn2nc(-c3ncc(CC4CNC4)c(Nc4ccnc(C(F)(F)F)c4)n3)c3ccccc32)c(F)c1 tested_target="catalytic domain of human Bub1 (amino acids 704-1085) (Homo sapiens)" numeric_value=2.64
chemical_smiles=COc1cnccc1Nc1nc(-c2nn(Cc3c(F)cc(OCCO)cc3F)c3ccccc23)ncc1C tested_target="catalytic domain of human Bub1 (amino acids 704-1085) (Homo sapiens)" numeric_value=0.71
chemical_smiles=CCOc1cc(F)c(Cn2nc(-c3ncc(CCN)c(Nc4ccnc(C)c4)n3)c3ccccc32)c(F)c1 tested_target="catalytic domain of human Bub1 (amino acids 704-1085) (Homo sapiens)" numeric_value=0.63
chemical_smiles=CCOc1cc(F)c(Cn2nc(-c3ncc(CCN)c(Nc4ccncc4Cl)n3)c3ccccc32)c(F)c1 tested_target="catalytic domain of human Bub1 (amino acids 704-1085) (Homo sapiens)" numeric_value=1.11

----------
target: catalytic domain of human Bub1 (amino acids 704-1085) (Homo sapiens); construct: catalytic domain of human Bub1 (amino acids 704-1085); His6 (N); made in house; host or cells: Hi5 insect cells; test: Bub1 kinase assay (TR-FRET); format: biochemical; settings: Biological Assay 1: Bub1 kinase assay median IC50, 10 μM ATP
pIC50: −log10 of the molar value.
# pIC50 annotations
Reported endpoint: pIC50

chemical_smiles=CCOc1cc(F)c(Cn2nc(-c3ncc(CC4CN(CC(F)(F)F)C4)c(Nc4ccncc4)n3)c3ccccc32)c(F)c1 tested_target="catalytic domain of human Bub1 (amino acids 704-1085) (Homo sapiens)" reported_endpoint=pIC50 numeric_value=7.21
chemical_smiles=CCOc1cc(F)c(Cn2nc(-c3nc4c(c(Nc5ccnc(NC(=O)C6CC6)c5)n3)CCC4)c3ccccc32)c(F)c1 tested_target="catalytic domain of human Bub1 (amino acids 704-1085) (Homo sapiens)" reported_endpoint=pIC50 numeric_value=8.03
chemical_smiles=CCOc1cc(F)c(Cn2nc(-c3nc4c(c(Nc5cc(C)nc(C)n5)n3)CCC4)c3ccccc32)c(F)c1 tested_target="catalytic domain of human Bub1 (amino acids 704-1085) (Homo sapiens)" reported_endpoint=pIC50 numeric_value=6.21
chemical_smiles=CCOc1cc(F)c(Cn2nc(-c3ncc(C4CCN(CC(F)(F)F)CC4)c(Nc4ccnc(NC(C)=O)c4)n3)c3ccccc32)c(F)c1 tested_target="catalytic domain of human Bub1 (amino acids 704-1085) (Homo sapiens)" reported_endpoint=pIC50 numeric_value=7.77
chemical_smiles=Oc1cc(F)c(Cn2nc(-c3nc4c(c(Nc5ccncn5)n3)CCC4)c3ccccc32)c(F)c1 tested_target="catalytic domain of human Bub1 (amino acids 704-1085) (Homo sapiens)" reported_endpoint=pIC50 numeric_value=7.85
chemical_smiles=OCCOc1cc(F)c(Cn2nc(-c3nc4c(c(Nc5ccncn5)n3)CCC4)c3ccccc32)c(F)c1 tested_target="catalytic domain of human Bub1 (amino acids 704-1085) (Homo sapiens)" reported_endpoint=pIC50 numeric_value=8.05
chemical_smiles=COCCOc1cc(F)c(Cn2nc(-c3ncc(C4CCN(CC(F)F)CC4)c(Nc4ccnc(C)n4)n3)c3ccccc32)c(F)c1 tested_target="catalytic domain of human Bub1 (amino acids 704-1085) (Homo sapiens)" reported_endpoint=pIC50 numeric_value=7.20
